- System: SK-N-MC cells
- procedure.details: MTT cellular proliferation assay, SK-N-MC neuroepithelioma cells
- Format: cell-based, human
- cond: SK-N-MC, 48 h, 37 °C, MTT, mean ± SD (3 experiments)
- Experimental: The anti-proliferative activity of Dp4e4mT relative to its complexes with Fe(III), Co(III), Ni(II), Cu(II), Zn(II), Ga(III), and Pd(II) was examined over incubation periods of 24-, 48-, and 72 h/37 °C (Table 2). […] Cellular proliferation was evaluated through the established 3-(4,5-dimethylthiazol-2-yl)-2,5-diphenyltetrazolium bromide (MTT) proliferation assay, validated by viable cell counts.12 […]
pIC50: −log10 of the molar value.
readout.type: pIC50

1. CCN(C)C([S-])=NN=C(c1ccccn1)c1ccccn1.[Cl-].[Cu+2] [[Cu(Dp4e4mT)Cl]]: 7.51
2. CCN(C)C([S-])=NN=C(c1ccccn1)c1ccccn1.CCN(C)C([S-])=NN=C(c1ccccn1)c1ccccn1.[Ga+3] [[Ga(Dp4e4mT)2]^+]: 7.37
3. CCN(C)C([S-])=NN=C(c1ccccn1)c1ccccn1.CCN(C)C([S-])=NN=C(c1ccccn1)c1ccccn1.[Ni+2] [[Ni(Dp4e4mT)2]]: 7.12

[I] CCN(C)C([S-])=NN=C(c1ccccn1)c1ccccn1.CCN(C)C([S-])=NN=C(c1ccccn1)c1ccccn1.[Fe+3] [[Fe(Dp4e4mT)2]^+]
[II] CCN(C)C([S-])=NN=C(c1ccccn1)c1ccccn1.[Cl-].[Pd+2] [[Pd(Dp4e4mT)Cl]]
Query: Response body: label of entry with the larger pIC50; valid values I , II . Answer format: the label of the selected item.
Reply: II

[I] CCN(C)C([S-])=NN=C(c1ccccn1)c1ccccn1.CCN(C)C([S-])=NN=C(c1ccccn1)c1ccccn1.[Co+3] [[Co(Dp4e4mT)2]^+]
[II] CCN(C)C([S-])=NN=C(c1ccccn1)c1ccccn1.CCN(C)C([S-])=NN=C(c1ccccn1)c1ccccn1.[Cu+2] [[Cu(Dp4e4mT)2]]
Query: Which has the higher pIC50, I or II ? Write down the label of the entry you select.
Reply: II
